assay: Ocular pharmacokinetics of formulations, Example 20-5; type: in vivo, Dutch Belted rabbits; conditions: Dutch Belted, rabbit, cornea, topical, 1 mg/mL (30 μL per eye, bilateral); Group 7: 1 mg/mL suspension, 50 μm particles, TRIS 0.60%, glycerol 2%, HEC 0.2%, HPMC 0.08%, Vitamin K3 1 μM, pH 6, QD for 4 days; 1 hr post dose on Day 5; read-out: Cornea concentration
Assay Readout: concentration at 1 h (nM)
Just the number in nM, nothing appended.

Can you share its concentration at 1 h? I mean this molecule: Cl.NC(=O)c1c(OCc2c(F)cc(Br)cc2F)nsc1NC(=O)NCCCCN1CCCC1 [Compound-I, hydrochloride]
1240
